# system: B′γ1 regulatory subunit (UniProt Q13362-2 1-449)
# measurement-notes: ITC; 1 mM peptide titrated to 20–50 μM B′γ1; 20 mM HEPES pH 7.5, 200 mM NaCl; VP-ITC
# recorded-conditions: both partners purified
measured-attribute: Kd (nM)
State the answer as a number, implicitly in nM.

# input What does the data say about its Kd? Entry: LSTIDEEGS [Cyk4 S149E peptide (synthetic, phosphomimetic)]
# output 1590

Hello, the source for this data is paper PMC5586252, in case you need it.
